test: In vitro Caco-2 permeability; format: in vitro ADME; settings: human; Caco-2, 2 µM, 150 min, pH 6.5/7.4, n = 2
Recorded Papp A→B at 150 min, 2 µM for the following compounds
Returns: string containing the numeric result and its unit.

- CCN(CC)C(=O)CN1C(=O)S/C(=C\c2ccccc2)C1=O [1i]: 23 ×10⁻⁶ cm/s

QUERY: Quick check: Papp A→B at 150 min, 2 µM of CCCCNC(=O)CN1C(=O)S/C(=C\c2ccc(Cl)cc2)C1=O [3a] ?
RESULT: 1.6 ×10⁻⁶ cm/s

* * *

assay: XTT in vitro hepatotoxicity assay on HepG2 cells; assay type: cell-based, human; details: human, highest tested concentration (1000 μM), read-out: cell viability
measuredEndpoint: viability at 1000 µM (%)
State just the number; it will be interpreted in %.

QUERY: Quick check: viability at 1000 µM of CCN(CC)C(=O)CN1C(=O)S/C(=C\c2ccccc2)C1=O [1i] ?
RESULT: 64

* * *

experiment: Human liver microsomal stability; assay type: in vitro ADME; conditions: human, liver microsomes, 37.5 °C, LM conc 0.4 mg/mL, read-out: CLint,app
measuredEndpoint: microsomal CLint

QUERY: Quick check: microsomal CLint of CCCCNC(=O)CN1C(=O)S/C(=C\c2ccc(Cl)cc2)C1=O [3a] ?
RESULT: 32.5 µL/min/mg

* * *

Tested on: P-gp
Assay: In vitro Caco-2 permeability
Type: in vitro ADME
Settings: human; Caco-2, 2 µM, 150 min; read-out: Efflux Ratio (B > A/A > B)
Method: The oral bioavailability of compounds in terms of Caco-2 and MDCK-II permeability and the P-glycoprotein (P-gp) efflux ratio were assessed. The in vitro intrinsic half-life (T1/2,int) and the apparent intrinsic clearance (CLint,app) of compounds were also measured after incubation with human liver microsomes at 37.5 °C[65]. […] Quantification was done by LC-MS/MS. P-gp substrate activity was assessed by the efflux ratio (the ratio of Papp in the B-to-A direction over that in the A-to-B direction). […]
Recorded efflux ratio at 150 min, 2 µM for the following compounds

• CCN(CC)C(=O)CN1C(=O)S/C(=C\c2ccccc2)C1=O [1i] = 2.7

Please look at the following compound next.
QUERY: Tell me reported efflux ratio at 150 min, 2 µM for CCCCNC(=O)CN1C(=O)S/C(=C\c2ccc(Cl)cc2)C1=O [3a] , tested with P-gp.
RESULT: 3.2

* * *

Assay: In vitro Caco-2 permeability
Assay type: in vitro ADME
Details: human; Caco-2, based on Papp,A-B; read-out: Permeability Rank
Procedure: The oral bioavailability of compounds in terms of Caco-2 and MDCK-II permeability and the P-glycoprotein (P-gp) efflux ratio were assessed. The in vitro intrinsic half-life (T1/2,int) and the apparent intrinsic clearance (CLint,app) of compounds were also measured after incubation with human liver microsomes at 37.5 °C[65]. […] Quantification was done by LC-MS/MS. P-gp substrate activity was assessed by the efflux ratio (the ratio of Papp in the B-to-A direction over that in the A-to-B direction). […]
measuredEndpoint: Papp at 150 min, 2 µM

* CCN(CC)C(=O)CN1C(=O)S/C(=C\c2ccccc2)C1=O [1i] | ≥ 5 ×10⁻⁶ cm/s

Please look at the following compound next.
QUERY: Quick check: Papp at 150 min, 2 µM of CCCCNC(=O)CN1C(=O)S/C(=C\c2ccc(Cl)cc2)C1=O [3a] ?
RESULT: < 5 ×10⁻⁶ cm/s

* * *

test: In vitro MDCK-II permeability; type: in vitro ADME; conditions: dog, based on Papp,A-B, read-out: Permeability Rank
measuredEndpoint: Papp at 150 min, 2 µM

* CCCCNC(=O)CN1C(=O)S/C(=C\c2ccc(Cl)cc2)C1=O | < 5 ×10⁻⁶ cm/s

QUERY: Quick check: Papp at 150 min, 2 µM of `CCN(CC)C(=O)CN1C(=O)S/C(=C\c2ccccc2)C1=O` ?
RESULT: ≥ 5 ×10⁻⁶ cm/s

* * *

Recorded half-life for the following compounds
assay: Human liver microsomal stability; type: in vitro ADME; conditions: human liver microsomes, 37.5 °C, LM conc 0.4 mg/mL; read-out: T1/2,int
State just the number; it will be interpreted in h.

• CCN(CC)C(=O)CN1C(=O)S/C(=C\c2ccccc2)C1=O = 1.54

Please look at the following compound next.
QUERY: Quick check: half-life of `CCCCNC(=O)CN1C(=O)S/C(=C\c2ccc(Cl)cc2)C1=O` ?
RESULT: 0.888

* * *

Recorded Papp B→A at 150 min, 2 µM for the following compounds
assay: In vitro Caco-2 permeability; assay type: in vitro ADME; details: human; Caco-2, 2 µM, 150 min, pH 6.5/7.4, n = 2
State just the number; it will be interpreted in ×10⁻⁶ cm/s.

- CCN(CC)C(=O)CN1C(=O)S/C(=C\c2ccccc2)C1=O [1i]: 51.2

Please look at the following compound next.
QUERY: Quick check: Papp B→A at 150 min, 2 µM of CCCCNC(=O)CN1C(=O)S/C(=C\c2ccc(Cl)cc2)C1=O [3a] ?
RESULT: 19.3

* * *

target: human PPARγ (hPPARγ) (Homo sapiens); construct: expressed in transfected cells; host or cells: HepG2 (human hepatoblastoma), transient calcium phosphate transfection; assay: GAL-4 PPAR chimeric receptor transactivation assay in transiently transfected HepG2 cells; assay type: cell-based; conditions: Gal4-hPPARγ-LBD, HepG2 cells, concentration-response curve
Sequence (P37231 238-503 limits assumed): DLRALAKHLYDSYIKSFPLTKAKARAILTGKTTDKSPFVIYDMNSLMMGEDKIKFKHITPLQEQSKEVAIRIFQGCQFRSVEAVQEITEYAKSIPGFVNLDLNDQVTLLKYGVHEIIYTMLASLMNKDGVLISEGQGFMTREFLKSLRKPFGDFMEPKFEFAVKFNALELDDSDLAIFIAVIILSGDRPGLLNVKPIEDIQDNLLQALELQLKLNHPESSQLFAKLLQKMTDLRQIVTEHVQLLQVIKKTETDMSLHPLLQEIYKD
measuredEndpoint: EC50

* CCCCNC(=O)CN1C(=O)S/C(=C\c2ccc(Cl)cc2)C1=O | 5.9 µM
* CCN(CC)C(=O)CN1C(=O)S/C(=C\c2ccccc2)C1=O | 9.6 µM

Please look at the following compound next.
QUERY: Quick check: EC50 of `CCCCNC(=O)CN1C(=O)S/C(=C\c2ccccc2)C1=O` ?
RESULT: 7 µM

* * *

experiment: In vitro MDCK-II permeability; type: in vitro ADME; settings: dog, 2 µM, 150 min, pH 7.4/7.4, n = 2
Recorded Papp B→A at 150 min, 2 µM for the following compounds
State just the number; it will be interpreted in nm/s.

QUERY: Quick check: Papp B→A at 150 min, 2 µM of CCN(CC)C(=O)CN1C(=O)S/C(=C\c2ccccc2)C1=O [1i] ?
RESULT: 119

QUERY: Quick check: Papp B→A at 150 min, 2 µM of CCCCNC(=O)CN1C(=O)S/C(=C\c2ccc(Cl)cc2)C1=O [3a] ?
RESULT: 4
